assay-protocol: Aqueous solubility of the compound at pH 6.5
Type: physicochemical
experimental-endpoint: solubility

smi | experimental-endpoint | value
Cc1ccc(C(=O)NC2CC2)cc1NC(=O)c1ccc(-c2ccccc2Cl)s1 | solubility | < 1 µg/mL
Cc1ccc(C(=O)NC2CC2)cc1NC(=O)c1ccc(-c2cccc(Cl)c2)s1 | solubility | < 1 µg/mL

The record that follows has no solubility shown yet.
Task: Tell me solubility reported for Cc1ccc(C(=O)NC2CC2)cc1NC(=O)c1ccc(-c2ccc(Cl)cc2)s1
Output: < 1 µg/mL
